Task for the reader: assign each of the following compounds its reported pIC50.
Molecular target: full-length human PKCι (Homo sapiens)
Construct: Recombinant, full-length human PKCι expressed in Sf21 insect cells is also commercially available
Sequence (P41743 1-596): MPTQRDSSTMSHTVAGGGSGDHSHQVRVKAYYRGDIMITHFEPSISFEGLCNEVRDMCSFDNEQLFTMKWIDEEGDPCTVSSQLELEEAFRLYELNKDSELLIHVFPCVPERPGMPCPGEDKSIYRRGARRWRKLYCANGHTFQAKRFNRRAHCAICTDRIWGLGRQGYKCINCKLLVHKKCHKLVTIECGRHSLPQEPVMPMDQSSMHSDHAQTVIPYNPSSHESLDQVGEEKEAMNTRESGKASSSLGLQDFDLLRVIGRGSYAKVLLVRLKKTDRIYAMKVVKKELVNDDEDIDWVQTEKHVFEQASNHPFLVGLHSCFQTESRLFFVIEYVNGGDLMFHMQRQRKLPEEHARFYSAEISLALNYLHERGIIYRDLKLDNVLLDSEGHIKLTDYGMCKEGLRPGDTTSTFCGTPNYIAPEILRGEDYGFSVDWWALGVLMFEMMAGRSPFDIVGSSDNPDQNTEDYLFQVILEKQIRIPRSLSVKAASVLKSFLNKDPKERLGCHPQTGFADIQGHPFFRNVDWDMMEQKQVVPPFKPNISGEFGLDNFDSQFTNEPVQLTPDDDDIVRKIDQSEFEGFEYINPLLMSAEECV
Experiment: PKCι IC50 IMAP assay, full-length PKCι at 150 μM ATP
Settings: read-out: IC50 in IMAP assay against full length PKCi at 150 μM ATP
pIC50: −log10 of the molar value.

Reported pIC50 (full-length human PKCι (Homo sapiens)) for entry COc1cncc2nc(-c3ccnc(Nc4cncnc4)c3)nc(N[C@@H]3CCNC3)c12 [Example 385] is 6.00 to 7.00

Reported pIC50 (full-length human PKCι (Homo sapiens)) for entry COC(=O)C1CN(c2nc(-c3ccncc3)nc3cncc(OC)c23)CCN1 (stereo not shown) [Example 155] is 5.00 to 6.00

Reported pIC50 (full-length human PKCι (Homo sapiens)) for entry c1ccc2cc(Nc3cc(-c4nc(N5CCNCC5)c5c(C6CC6)cncc5n4)ccn3)ncc2c1 [Example 2060] is > 7.00

Reported pIC50 (full-length human PKCι (Homo sapiens)) for entry N[C@H](CNc1nc(-c2ccncc2)nc2c(Cl)nccc12)Cc1ccccc1 [Example 11] is > 7.00

----------
Target: full-length human PKCι (Homo sapiens, UniProt P41743)
Construct: Recombinant, full-length human PKCι expressed in Sf21 insect cells is also commercially available
Assay: PKCι IC50 IMAP assay, full-length PKCι at 150 μM ATP
Settings: read-out: IC50 in IMAP assay against full length PKCi at 150 μM ATP
observed_property: IC50

Record COCc1cc2c(-c3nc(N4CCNCC4)c4c(C5CCC5)cncc4n3)ccnc2[nH]1 . Reported IC50: < 100 nM

Record Cn1c(C(F)(F)F)cc2c(-c3nc(N[C@@H]4CCNC4)c4c(C5CC5)cncc4n3)ccnc21 . Reported IC50: 10000 to 40000 nM

Record CC(C)(C)c1cc2c(-c3nc(N4CCNCC4)c4c(C5CC5)cnc(Cl)c4n3)ccnc2[nH]1 . Reported IC50: < 100 nM

Record COc1cncc2nc(-c3ccnc(Nc4cccc(C#N)c4)c3)nc(N3CCNCC3)c12 . Reported IC50: 100 to 1000 nM

Record c1cc(-c2nc(N3CCNCC3)c3c(C4CC4)cncc3n2)cc(Nc2cnn(C3CCCC3)c2)n1 . Reported IC50: < 100 nM

Record N[C@H](CNc1nc(-c2ccncc2)nc2c(-c3cccc(Cl)c3)nccc12)Cc1ccccc1 . Reported IC50: 100 to 1000 nM

Record COc1cncc2nc(-c3ccncc3)nc(NC[C@@H](N)Cc3ccccc3)c12 . Reported IC50: < 100 nM

----------
Task for the reader: assign each of the following molecules its reported IC50.
Target: full-length human PKCι (Homo sapiens)
Construct: Recombinant, full-length human PKCι expressed in Sf21 insect cells is also commercially available; purchased; host or cells: Sf21 insect cells
Experiment: PKCι IC50 IMAP assay, full-length PKCι at 150 μM ATP
Format: biochemical
Conditions: read-out: IC50 in IMAP assay against full length PKCi at 150 μM ATP

Record COc1cncc2nc(-c3ccnc(Nc4ccccc4)c3)nc(N3CCC(O)CC3)c12 [Example 427] . Reported IC50: 1000 to 10000 nM

Record COc1cncc2nc(-c3ccnc(NC(=O)Cc4cccc(C#N)c4)c3)nc(N3CCN(C)CC3)c12 [Example 404] . Reported IC50: 100 to 1000 nM

Record COc1cncc2nc(-c3ccnc(NC(=O)C(C)(C)C)c3)nc(N3CCNCC3)c12 [Example 217] . Reported IC50: 100 to 1000 nM

Record COc1cncc2nc(-c3ccnc(NC(=O)Cc4cccc(Cl)c4)c3)nc(N3CCN(C)CC3)c12 [Example 398] . Reported IC50: 100 to 1000 nM

Record FC(F)(F)C1CN(c2nc(-c3ccncc3)nc3cnccc23)CCN1 (centres unmarked) [Example 59] . Reported IC50: 10000 to 40000 nM

----------
Target: full-length human PKCι (Homo sapiens, UniProt P41743)
Construct: Recombinant, full-length human PKCι expressed in Sf21 insect cells is also commercially available
Test: PKCι IC50 IMAP assay, full-length PKCι at 150 μM ATP
Settings: read-out: IC50 in IMAP assay against full length PKCi at 150 μM ATP
observed_property: IC50

Reported IC50 (full-length human PKCι (Homo sapiens, UniProt P41743)) for entry c1ccc(C[C@H]2CN(c3nc(-c4ccnc5[nH]ccc45)nc4cncc(C5CC5)c34)CCN2)cc1 is < 100 nM

Reported IC50 (full-length human PKCι (Homo sapiens, UniProt P41743)) for entry COc1cncc2nc(-c3ccnc(Nc4ncccc4F)c3)nc(N3CCNCC3)c12 is < 100 nM

Reported IC50 (full-length human PKCι (Homo sapiens, UniProt P41743)) for entry Cc1ccccc1Nc1cc(-c2nc(N3CCNCC3)c3c(C4CC4)cncc3n2)ccn1 is < 100 nM

Reported IC50 (full-length human PKCι (Homo sapiens, UniProt P41743)) for entry COc1cncc2nc(-c3ccnc(Nc4cc(F)c(F)cc4F)c3)nc(N3CCNCC3)c12 is 100 to 1000 nM

Reported IC50 (full-length human PKCι (Homo sapiens, UniProt P41743)) for entry COc1cncc2nc(-c3ccnc(Nc4ccc(N5CCN(C)CC5)nc4)c3)nc(N[C@@H]3CCNC3)c12 is < 100 nM

Reported IC50 (full-length human PKCι (Homo sapiens, UniProt P41743)) for entry CC(C)n1ccc(Nc2cc(-c3nc(N4CCNC(C)(C)C4)c4c(C5CC5)cncc4n3)ccn2)n1 is < 100 nM

Reported IC50 (full-length human PKCι (Homo sapiens, UniProt P41743)) for entry CN1CCN(c2cccc(Nc3cc(-c4nc(N5CCC(O)C(O)C5)c5c(C6CC6)cncc5n4)ccn3)c2)CC1 (single isomer, unassigned) [Example 752] is < 100 nM

Reported IC50 (full-length human PKCι (Homo sapiens, UniProt P41743)) for entry c1cc(-c2nc(N3CCNCC3)c3c(C4CCC4)cncc3n2)cc(NC2CCOCC2)n1 is < 100 nM

Reported IC50 (full-length human PKCι (Homo sapiens, UniProt P41743)) for entry NC(=O)C1CCN(c2nc(-c3ccnc(Nc4c(F)cccc4F)c3)nc3cncc(C4CC4)c23)CC1 is 100 to 1000 nM

Reported IC50 (full-length human PKCι (Homo sapiens, UniProt P41743)) for entry COc1cncc2nc(-c3ccnc(Nc4ccccc4)c3)nc(N3CCN[C@@H](C4CC4)C3)c12 is 100 to 1000 nM

Reported IC50 (full-length human PKCι (Homo sapiens, UniProt P41743)) for entry N[C@H](CNc1nc(-c2ccncc2)nc2c(-c3ccc(O)cc3)nccc12)Cc1ccccc1 is 100 to 1000 nM

Reported IC50 (full-length human PKCι (Homo sapiens, UniProt P41743)) for entry C[C@H]1CN(c2nc(-c3ccnc(Nc4ccc(C(F)(F)F)cn4)c3)nc3cncc(C4CC4)c23)CCN1 is < 100 nM

Reported IC50 (full-length human PKCι (Homo sapiens, UniProt P41743)) for entry c1cc(-c2nc(N3CCNCC3)c3c(C4CC4)cncc3n2)cc(Nc2ccc3nonc3c2)n1 is < 100 nM

Reported IC50 (full-length human PKCι (Homo sapiens, UniProt P41743)) for entry CS(=O)(=O)CCN1CCN(c2nc(-c3ccnc(NC(=O)C4CC4)c3)nc3cncc(C4CC4)c23)CC1 is 1000 to 10000 nM

Reported IC50 (full-length human PKCι (Homo sapiens, UniProt P41743)) for entry COc1cncc2nc(-c3ccnc(NC(=O)Cc4cccc(N)c4)c3)nc(N[C@@H]3CCNC3)c12 is 10000 to 40000 nM

Reported IC50 (full-length human PKCι (Homo sapiens, UniProt P41743)) for entry CN1CCN(c2cccc(Nc3cc(-c4nc(N5C[C@H](O)[C@@H](O)C5)c5c(C6CC6)cncc5n4)ccn3)c2)CC1 is 100 to 1000 nM

Reported IC50 (full-length human PKCι (Homo sapiens, UniProt P41743)) for entry c1cc(-c2nc(N[C@@H]3CCOC3)c3ccncc3n2)ccn1 is 10000 to 40000 nM

Reported IC50 (full-length human PKCι (Homo sapiens, UniProt P41743)) for entry COc1cncc2nc(-c3ccnc(Nc4ccc(F)cc4)c3)nc(N[C@@H]3CCNC3)c12 is < 100 nM

Reported IC50 (full-length human PKCι (Homo sapiens, UniProt P41743)) for entry Clc1ccnc(Nc2cc(-c3nc(N[C@@H]4CCNC4)c4ccncc4n3)ccn2)c1 is < 100 nM

Reported IC50 (full-length human PKCι (Homo sapiens, UniProt P41743)) for entry c1cc(-c2nc(N3CCNCC3)c3c(C4CCC4)cncc3n2)c2cc[nH]c2n1 is < 100 nM

Reported IC50 (full-length human PKCι (Homo sapiens, UniProt P41743)) for entry CN(C)CCNC(=O)C1CCN(c2nc(-c3ccnc(Nc4c(F)cccc4F)c3)nc3cncc(C4CC4)c23)CC1 is < 100 nM

Reported IC50 (full-length human PKCι (Homo sapiens, UniProt P41743)) for entry COc1cncc2nc(-c3ccnc(Nc4cc(C(N)=O)ccn4)c3)nc(N3CCNCC3)c12 is < 100 nM

Reported IC50 (full-length human PKCι (Homo sapiens, UniProt P41743)) for entry COc1cncc2nc(-c3ccnc(Nc4ccncn4)c3)nc(N3CCNCC3)c12 is < 100 nM
